B1: Cytoplasmic polyadenylation element-binding protein 2, residues 513 to 575; numbered along this chain, Q7Z5Q1 (parent)
chain: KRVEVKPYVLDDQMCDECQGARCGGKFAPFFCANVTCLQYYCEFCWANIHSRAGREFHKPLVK

- Variants of: B1
- Assay details: abundance fitness (aPCA) (normalised: wild type 0, dead -1); higher = more abundant; growth selection in yeast, the domain comes from the species named
- Test parameters: Homo sapiens
Assay readout: abundance fitness
Answers are plain numbers.

The cases that follow already have their abundance fitness on record.
> print(dat)
   mutation.spec  reported.value
1           C32T          -0.779
2           A21H          -0.238
3           I49Q          -0.132
4           C18P           -0.84
5           E43V          -0.235

The following variants each have a reported value; give each one's abundance fitness.
1. C42D
2. Y8S
3. C37S
4. C15S
5. F30E
6. G20P
7. G54I

Output:
1. -0.558
2. 0.121
3. -0.54
4. -0.377
5. -0.415
6. -0.688
7. -0.176

All values here come from the Human Domainome abundance scans (Beltran et al. 2025).
